Target: FPR3 (Homo sapiens, UniProt P25089)
Construct: purchased Promega (in-house HiBiT-GPCR construct library, NanoBRET)
Sequence (P25089 1-353): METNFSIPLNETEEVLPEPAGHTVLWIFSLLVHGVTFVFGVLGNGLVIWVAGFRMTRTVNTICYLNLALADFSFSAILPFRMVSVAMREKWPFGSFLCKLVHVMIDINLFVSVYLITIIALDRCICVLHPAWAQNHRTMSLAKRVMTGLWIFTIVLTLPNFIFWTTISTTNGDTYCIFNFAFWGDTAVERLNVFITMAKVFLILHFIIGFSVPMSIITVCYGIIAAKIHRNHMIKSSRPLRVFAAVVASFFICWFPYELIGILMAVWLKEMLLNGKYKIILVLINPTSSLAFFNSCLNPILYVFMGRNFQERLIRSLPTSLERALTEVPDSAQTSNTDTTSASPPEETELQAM
Assay: NanoBRET screen HiBiT-FPR3 in HEK293
Format: binding
Conditions: FPR3; tracer 1μM
I would appreciate it if you labelled entries Criterion met when NanoBRET Fold Response is 1 or higher, otherwise Criterion not met.

1) CCCn1c(=O)c2[nH]c(-c3ccc(OCC(=O)NCCNC(=O)CCOCCNC(=O)c4ccc(CNC(=O)CCc5ccc6n5[B-](F)(F)[N+]5=C(c7ccc[nH]7)C=CC5=C6)cc4)cc3)nc2n(CCC)c1=O : Criterion met
2) CC(C)N(CC[C@H](c1ccccc1)c1cc(CCNC(=O)c2ccc(CNC(=O)CCc3ccc4n3[B-](F)(F)[N+]3=C(c5ccc[nH]5)C=CC3=C4)cc2)ccc1O)C(C)C : Criterion not met
3) Cc1nc2n(c(=O)c1CCN1CCC(c3noc4cc(F)ccc34)CC1)CCCC2OC(=O)NCCOCCOCCOCCOCCNC(=O)CCc1ccc2n1[B-](F)(F)[N+]1=C(c3ccc[nH]3)C=CC1=C2 (stereo not drawn) : Criterion not met
4) N#CN=C(NCCCOc1cccc(CN2CCCCC2)c1)NCCNC(=O)CCOCCOCCOCCOCCNC(=O)CCc1ccc2n1[B-](F)(F)[N+]1=C(c3ccc[nH]3)C=CC1=C2 : Criterion met
5) O=C(CCc1ccc2n1[B-](F)(F)[N+]1=C(c3ccc[nH]3)C=CC1=C2)NCCOCCOCCNC(=O)OCCOCCN1CCN(C2=Nc3ccccc3Sc3ccccc32)CC1 : Criterion not met
